Values compiled from PubChem BioAssay.

test: small-molecule microarray binders of probe aShh, primary screen, biochemical, biotinylated probe, 635/667 nm fluorescence (AID 1114); conditions: higher = more signal;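 note: probe is biotin-labelled aShh protein from a stem cell growth factor screen; measures binding of labelled protein to compounds printed on the slide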
# composite z-score >= -0.01 gives yes, anything below gives no

>  <COMPOUND>
CC(C)NC(=O)[C@@H]1c2ccccc2C(=O)N(Cc2ccccc2Cl)[C@H]1c1ccc(CO)cc1

>  <ASSIGNED_CLASS>
no

$$$$
>  <COMPOUND>
O=C1OCC=C[C@H]2OC34C=CCN(c5ccc6ccccc6c5)C(=O)[C@H]3N(CCCO)C(=O)[C@@H]4[C@@H]12 (stereo not given in full)

>  <ASSIGNED_CLASS>
no

$$$$
>  <COMPOUND>
CCOC(=O)C1=CC[C@@H](c2ccccc2)N(S(=O)(=O)c2ccc(C)cc2)[C@H]1C(=O)OCC

>  <ASSIGNED_CLASS>
yes

$$$$
>  <COMPOUND>
CCOC(=O)C[C@H]1[C@H](OC(=O)c2ccccc2-c2ccccc2)[C@@H](NC(=O)c2ccc3ccccc3c2)c2cc(OCCCO)ccc2N1C(=O)c1ccc2ccccc2n1

>  <ASSIGNED_CLASS>
no

$$$$
>  <COMPOUND>
C=CCN1C(=O)[C@]2(O[C@H](CCO)[C@@H]([Si](C)(C)c3ccc(OC)cc3)[C@@H]2C)c2cc(NC(=O)[C@H](C)O)ccc21

>  <ASSIGNED_CLASS>
yes

$$$$
>  <COMPOUND>
O=C(OCCF)C1=CCC(c2cccc(Cl)c2)O1 (stereo not given)

>  <ASSIGNED_CLASS>
no

$$$$
>  <COMPOUND>
CC(c1ccccc1)C(O)C1C=CC2C(=O)NC(=O)C2N1Nc1ccccn1 (stereo not given)

>  <ASSIGNED_CLASS>
no

$$$$
>  <COMPOUND>
CCC(CC)C(O)C1C=CC2C(=O)N(c3ccccc3)C(=O)C2N1Nc1ccc(C#N)cc1 (stereo not given)

>  <ASSIGNED_CLASS>
yes

$$$$
>  <COMPOUND>
COc1ccc(NN2C(C(O)c3ccc(OC)c(OCc4ccccc4)c3)C=CC3C(=O)N(C4CCCCC4)C(=O)C32)cc1 (stereo not given)

>  <ASSIGNED_CLASS>
yes

$$$$
>  <COMPOUND>
COCCOC(=O)N1C(=O)[C@@]2(c3cc(C#CCNC(N)=O)ccc31)[C@H](c1ccccc1OCCO)N1[C@H](c3ccccc3)[C@H](c3ccccc3)OC(=O)[C@H]1[C@@H]2C(N)=O

>  <ASSIGNED_CLASS>
no

$$$$
>  <COMPOUND>
COCCCNC(=O)[C@@]1(c2ccc([N+](=O)[O-])cc2)CC(=O)N(CC23CC4CC(CC(C4)C2)C3)[C@@H]1c1ccc(CO)cc1

>  <ASSIGNED_CLASS>
no

$$$$
>  <COMPOUND>
CS(=O)(=O)CCOC(=O)C1=CC(CCCO)=CC(c2cccs2)N(Cc2cc3c(cc2Br)OCO3)C=C1C(=O)OCCS(C)(=O)=O (stereo not given)

>  <ASSIGNED_CLASS>
yes

$$$$
>  <COMPOUND>
O=C1O[C@H](c2ccccc2)[C@H](c2ccccc2)N2[C@H]1[C@@H](C(=O)O)[C@]1(C(=O)Nc3ccc(C#CC4(O)CCCCCC4)cc31)[C@H]2c1ccc(OCCO)cc1

>  <ASSIGNED_CLASS>
yes

$$$$
>  <COMPOUND>
CCOC(=O)C1=C[C@@H](C(C)C)N(S(=O)(=O)c2ccc(C)cc2)[C@H]1c1ccc(C(C)C)cc1

>  <ASSIGNED_CLASS>
no

$$$$
>  <COMPOUND>
CC(C)C[C@@H]1NC(=O)[C@H]2C[C@@H](C(=O)NCCCCCCNC(=O)CS)[C@@H](c3cccc(OCCO)c3)N2C1=O

>  <ASSIGNED_CLASS>
no

$$$$
